Listing: purified protein yield per well of selected sequences
- Method notes: purified protein yield per well (BCA); higher = higher soluble expression

{"Construct sequence": "AAPPVPQVAASPYERGPAPSEESVTAAEGPFEFETIDVPAGSGDGFNQGTIYAPTDRSQGTFGAIAVSPGFVSPEALVSWYGPRLASQGFVVMTIETNTVLDLPAMRGDQLLAALDYLTGAASPVADRVDPDRLAVMGHSMGGGGTLEAASRRTDLRAAVPLAPWNLTSDWSAVRTPTMILGAQNDFIAANGLHSEPFYEGLTSAPEKAYAELENTGHMSFNTPNDTIAKYTIAWMKRYVDDDARYERFLCPAPSDDPALIEYRDTCPGG [TEP149]", "Quantity unit": "µg", "Qual": "<", "purified protein yield per well": 25}
{"Construct sequence": "MAADNPYQRGPNPTSASVAASRGTFATAELSVPRGNGFGGGKIYYPTDTTQGTFGAIAIVPGYTATWAAEGAWMGHWLASFGFVVIGIDTNSRNDNDTARGTQLLAALDYLTQRSSVRGRVDAKRLAVMGHSMGGGGALVAARQRPSLKAAVGLAPFKPSGPPSADRVPTMVIAGQRDGTVTPSYVDGLYRAIPAGTEKAYLEFAGAGHAFPTRPNPLQMRLVIPWLKSFTDHDTRYHQFLCPLKDRTGVTAYRSTCPLVAPGARD [TEP041]", "Quantity unit": "µg", "Qual": "=", "purified protein yield per well": 427}
{"Construct sequence": "MSATRGTFATAQLSVPAGNGFGGGVIYYPTDTSQGTFGGVAIVPGYSALFANEEAWMGPWLASFGFVVIGIETNSRTDGADARATQLLAALDYLTQRSSVRDRVDSSRLSVVGHSAGGAGVILATGQRPSLKAAVGLAPGSPTGNLSLANDRVPMMFISGQRDTTVTQSYLNGLYTTLPASTPSAWVEITGVDHLFATRANTTEMRTLIPWLKIFVDNDTRYTQFLCPLMDSSNISMYRNKCPYVPPGGPSPSPSPSPSPSPSPSPSPSPSPSPSPSPSPSPSPSPSPSPSAGACTASYRTTNSWPGGHQGEVTVTAGGSAISGWTVRWTLGSGQTVSQVWNGTLSVSGSTVTVTNASYNGSLPASGSTTFGFLGTGTASAPSLTCTSRP [ESM002]", "Quantity unit": "µg", "Qual": "<", "purified protein yield per well": 25}
{"Construct sequence": "QDNSQGRYRPEGRQVGLAIGREFDERLYEVRTYEPEVGAEAFAGAMVFYPLTLSFDPPNGAVAFVPGFRAPASVYEWWGPALASLGYSVFILETNTPTDALAARADALIAAVDLIKAENQNPDAPVANKIDPEKIAIMGHSMGGGASLVAATQMGDSIKAVIPLALYCCEPGQSFSGDYGSLTLPTMIIASAEDEVAPPAEHAKLLYDSIGGSKTYVEFARGDHMFISNSGDQKATLGRFVLAFLKDILDGR [TEP019]", "Quantity unit": "µg", "Qual": "<", "purified protein yield per well": 25}
{"Construct sequence": "FSATGPSAPCSNCTRGPAPTVTALKASTGPFTTAKFSVSGFLKGYGDSTVYYPTNTTGKMGAIAVIPGYLSYESSIDWWGPRLASHGFVVMTMNTKTIYDQPDSRASQLSEALDYLIAQSKSSSSPLYNKIDSTRLGAIGWSMGGGGSLKLATQRSINAIIPQAPWYLGSSAFSGIKTPTLILACSADTVAPVAQHASPFYNQIPNSTPKAFLEIYGGSHFCANSGYPNQDMLGMYGIAWMKRFIDFDSRYSQFLCGPNHESDYAISDYRENCPY [ESM055]", "Quantity unit": "µg", "Qual": "=", "purified protein yield per well": 28.9}
{"Construct sequence": "ADNPYQRGPDPTVASVAATRGTFATAQLTVPAGNGFGGGYVYYPTDTSQGTWGAVAIVPGYSARFADEEAWMGPWLASFGFVVIGVETITRTDGADARATQLLAALDYLVGQSPVRDRVDPARLAVMGHSAGGAGTIIAAERRPSLRAAVGLAPGTPGSLSLATDRVPMMVIGGQTDPTVTPSYLDNLYATVPAATPSDFVQIAGADHLFFTRANNTEMKVLIPWLKIFLDSDTRYTSLLCPSLADPSGISLYRSKCPYVPPGTTSPSPSSPSPSSPGPPVPVAACTATYRTVNAWPGGFQGEVVVTAGGTAITGWTVRWTLGSGQTISQLWNGNLTTSGSAVTVDSAAYNGSVPPAGSVVFGFLATGSPTTPAPVCASP [ESM046]", "Quantity unit": "µg", "Qual": "<", "purified protein yield per well": 25}
{"Construct sequence": "GETAQTTDVSAQSQFQRGPNPTVSSIEARTGHYRTSTTRVSSFASGFGGGTIYYPTTTSDGTFGGVAVAPGYTASSSTMDWLGPRIASQGFVVFVIDTNTRLDQPSSRGRQLLAALDYLTERSSERHRVDSNRLAVMGHSMGGGGALEATISRPSLKASIPLTPWNLTKNWSRVTTPTLIVGAENDSVASVRSHSIPFYTSLSSSTDRMYVELDGASHFAPNVSNTTIAKYSISWLKRFVDDDTRYDQFLCPLPNERAISDIRGNCPR [DP090]", "Quantity unit": "µg", "Qual": "=", "purified protein yield per well": 423}
{"Construct sequence": "MGSNPYQRGPDPTTSSLEASRGPFSVASFTVSRPSGYGAGTVYYPTNAGGKVGAIAIVPGYTARQSSINWWGPRLASHGFVVITIDTNSTLDQPSSRSSQQMAALRQVVSLSGTSSSPIYNKVDTSRLGVMGWSMGGGGSLISARNNPSLKAAAPQAPWNSSKNFSSVTVPTLIIACENDTIAPVNSHALPFYNSMSRNPKQYLEINGGSHSCANSGNSNQALIGKKGVAWMKRFMDNDTRYSSFACSNPNSSSVSDFRTENCSAS [TEP184]", "Quantity unit": "µg", "Qual": "<", "purified protein yield per well": 25}
{"Construct sequence": "AENPYERGPAPTTASIEALRGPFATAETTVSSLSVRGFGGGTIHYPTSTAEGTFGAVAVAPGYTASQSSLSWLGPRLASQGFVVFVIDTNSRYDQPASRGDQLLAALDYLTTSSSVRGRIDASRLGVMGHSMGGGGALEATKDRPSLQASIPLTPWNTTKTWSTVRTPTLVVGAEDDSVAPVRTHAEPFYEGLPSTLDKAYLELAGASHFAPNSSNTTIAKYSIAWLKRFVDDDTRYEQFLCPAPRGTAISEYRDTCPHP [TEP110]", "Quantity unit": "µg", "Qual": "=", "purified protein yield per well": 48.9}
{"Construct sequence": "DEVGQAPTAANIVGDGSFATTSSAITGQSGFGGGTVYYPTTAGRYPVVAVAPGFLSDWNSLNWLGSRVASWGFVVVGVNTNSGFDFPPSRGDQLLAALNWAVGSAPVAVRDKVDGTRRGVAGWSMGGGGTLEALAKDTTGTVKAGVPLAPWHSDKTWEQVSEPVFLVGGQNDTVAAPSSHAIPFYNSLGGQKSYLELAGQAHFFPTTSNPTVSRAIVSWFKRFVSSDNRFTPFTCGYTGSAVSNFRSSAC [ESM100]", "Quantity unit": "µg", "Qual": "<", "purified protein yield per well": 25}
